subject.of.test: human p38 kinase alpha (Homo sapiens, UniProt Q16539)
Construct: The coding region of the human p38a cDNA was obtained by PCR-amplification from RNA isolated from the human monocyte cell line THP.1; GST (N); made in house; host or cells: E. coli DH10B
measurement.notes: p38 kinase in vitro assay, phosphorylation of biotinylated PHAS-I with gamma 32P-ATP
Format: biochemical
test.parameters: read-out: p38 alpha IC50
Where a name gives a salt, the structure may show the parent alone.
Record form. Attribute: IC50. Fill in for each entry.
One number for each entry, in nM.

Asked: Return the recorded IC50 value; entry: C[C@@H](O)C(=O)N1CCC(c2[nH]nc(-c3ccc(Cl)cc3)c2-c2ccncn2)CC1 [Example D-6, hydrochloride]
Given back: 83

Asked: Kindly indicate its recorded IC50. Item: `O=C(CO)N1CCC(c2[nH]nc(-c3ccc(OC(F)(F)F)cc3)c2-c2ccncn2)CC1`
Given back: 3950

Asked: Check the records and state IC50 for COCC(=O)N1CCC(c2[nH]nc(-c3ccc(Cl)cc3)c2-c2ccncn2)CC1 [Example D-3, (fumarate salt)]
Given back: 95

Further cases:
Asked: State, in one line, measured IC50 of `O=C(CO)N1CCC(c2[nH]nc(-c3ccc(F)cc3)c2-c2ccncn2)CC1`
Given back: 180

====

subject.of.test: human GST-p38 kinase alpha (Homo sapiens, UniProt Q16539)
Construct: The coding region of the human p38a cDNA was obtained by PCR-amplification from RNA isolated from the human monocyte cell line THP.1; made in house; host or cells: E. coli DH10B
Sequence (Q16539 whole entry): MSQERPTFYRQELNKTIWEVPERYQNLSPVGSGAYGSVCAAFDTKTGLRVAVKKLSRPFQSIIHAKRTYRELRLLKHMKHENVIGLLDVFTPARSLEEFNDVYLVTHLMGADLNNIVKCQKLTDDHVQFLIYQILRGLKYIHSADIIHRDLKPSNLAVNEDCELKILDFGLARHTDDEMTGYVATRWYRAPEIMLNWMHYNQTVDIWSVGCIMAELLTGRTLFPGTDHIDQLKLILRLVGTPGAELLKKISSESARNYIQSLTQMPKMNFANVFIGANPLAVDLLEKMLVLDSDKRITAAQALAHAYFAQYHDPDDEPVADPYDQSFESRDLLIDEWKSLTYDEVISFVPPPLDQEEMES
measurement.notes: p38 kinase in vitro assay, second format, phosphorylation of EGFRP with 33P-ATP
Type: biochemical
test.parameters: p38α in vitro, EGFRP assay procedure; read-out: p38^2 IC50
endpoint.name: pIC50
Numbers only, as −log10 of the molar value.

Examples from the recorded data:
Asked: For `Cn1cc(-c2ccncc2)c(-c2ccc(I)cc2)n1` , write its pIC50.
Given back: 6.20

Asked: // Input: `Cn1nc(-c2ccc(F)cc2)c(-c2ccncc2)c1Br` . Output its pIC50 only.
Given back: 7.22

Asked: State its pIC50: `CN(C)CCn1cc(-c2ccncc2)c(-c2ccc(F)cc2)n1`
Given back: 8.10

Continue with the next compound.
Asked: Using the record for `FC(F)(F)c1cccc(-c2n[nH]cc2-c2ccncc2)c1` , state its measured pIC50.
Given back: 7.03

====

subject.of.test: human p38 kinase alpha (Homo sapiens, UniProt Q16539)
Construct: The coding region of the human p38a cDNA was obtained by PCR-amplification from RNA isolated from the human monocyte cell line THP.1; GST (N); made in house; host or cells: E. coli DH10B
measurement.notes: p38 kinase in vitro assay, phosphorylation of biotinylated PHAS-I with gamma 32P-ATP
Format: biochemical
test.parameters: read-out: P38 alpha kinase IC50
endpoint.name: IC50 (nM)
One number for each entry, in nM.

Asked: Give a short answer stating reported IC50 for `CC(C)(O)CCCc1[nH]nc(-c2ccc(F)cc2)c1-c1ccncc1` .
Given back: 160

Asked: For `COc1ccc(C)cc1S(=O)(=O)N[C@H](C)c1[nH]nc(-c2ccc(F)cc2)c1-c1ccncc1` , write its IC50.
Given back: 63

Asked: Tell me its IC50 given `O=C(NCc1[nH]nc(-c2ccc(F)cc2)c1-c1ccncc1)[C@H]1CCCN1` as the entry.
Given back: 2240

Asked: Output measured IC50 for this item: `CC(=O)N[C@H](C)c1[nH]nc(-c2ccc(F)cc2)c1-c1ccncc1`
Given back: 450

For each of the compounds below, state IC50.
1. COCC(=O)N[C@H](C)c1[nH]nc(-c2ccc(F)cc2)c1-c1ccncc1
2. C[C@@H](NC(=O)c1ccc(I)cc1)c1[nH]nc(-c2ccc(F)cc2)c1-c1ccncc1

Given back:
1: 700; 2: 4670

Batch: IC50 for all items listed.
1. C[C@@H](NS(=O)(=O)c1ccc(CNC(=O)c2ccccc2)s1)c1[nH]nc(-c2ccc(F)cc2)c1-c1ccncc1
2. CC(C)(C)C(=O)NC(Cc1ccccc1)c1[nH]nc(-c2ccc(F)cc2)c1-c1ccncc1 (centres unmarked) [Example B-0746]

Given back:
1. 120
2. 10
